As shown below, each of these molecules has a reported IC50 value.
Target: kappa opioid receptor (OPRK1) (Homo sapiens (Human))
Sequence (P41145 whole entry): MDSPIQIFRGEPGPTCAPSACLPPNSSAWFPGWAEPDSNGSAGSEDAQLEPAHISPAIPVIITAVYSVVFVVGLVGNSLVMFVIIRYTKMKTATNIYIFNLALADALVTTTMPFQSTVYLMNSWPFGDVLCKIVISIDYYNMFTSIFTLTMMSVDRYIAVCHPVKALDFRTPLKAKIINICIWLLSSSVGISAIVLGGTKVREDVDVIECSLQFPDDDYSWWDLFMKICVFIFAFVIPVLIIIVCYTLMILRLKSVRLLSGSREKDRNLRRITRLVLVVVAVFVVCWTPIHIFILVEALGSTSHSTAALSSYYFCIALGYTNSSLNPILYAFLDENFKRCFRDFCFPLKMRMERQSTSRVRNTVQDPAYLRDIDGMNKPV
Test: OPRK1 antagonist assay (b-arrestin-2-TEV / b-lactamase reporter, EC80 U-50488 challenge)
Details: OPRK1 antagonist assay vs EC80 U-50488

Field: example entries. Status: answers known.
- COC(=O)c1cc(-c2ccccc2)cnc1N1CCC(NC2CCCCC2)CC1: > 10 µM
- O=Cc1cc(Br)cnc1N1CCC(NC2CCCCC2)C(CO)C1 (stereo not shown): > 10 µM
- O[C@@H]1CCCC[C@H]1NC1CCN(c2ccc(Cl)cn2)CC1: > 10 µM

Measured IC50 for this entry COC(=O)c1cc(Br)cnc1N1CCC(NC2CCCCC2)(C(=O)OC)CC1 on kappa opioid receptor (OPRK1) (Homo sapiens (Human)): > 10 µM

Measured IC50 for this entry COC(=O)c1cc(Br)cnc1N1CCC(NC2CCC(O)CC2)CC1 (stereo not shown) on kappa opioid receptor (OPRK1) (Homo sapiens (Human)): > 10 µM

Measured IC50 for this entry Cc1nc(-c2cc3cc(F)ccc3nc2N2CCC(NC3CCCCC3)CC2)no1 on kappa opioid receptor (OPRK1) (Homo sapiens (Human)): 0.616 µM

Measured IC50 for this entry COC(=O)c1cc(NC(=O)CCN(C)C)cnc1N1CCC(NC2CCCCC2)CC1 on kappa opioid receptor (OPRK1) (Homo sapiens (Human)): > 10 µM

Measured IC50 for this entry COC(=O)c1cnc(N2CCC(NC3CCCCC3)CC2)c(N)c1 on kappa opioid receptor (OPRK1) (Homo sapiens (Human)): > 10 µM

Measured IC50 for this entry Cc1ccc2nc(N3CCC(CNC4CCCCC4)CC3)c(-c3nc(C)no3)cc2c1 on kappa opioid receptor (OPRK1) (Homo sapiens (Human)): > 10 µM

Measured IC50 for this entry CCOC(=O)c1c(C(F)(F)F)ccnc1N1CCC(NC2CCCCC2)CC1 on kappa opioid receptor (OPRK1) (Homo sapiens (Human)): > 10 µM

Measured IC50 for this entry CO[C@@H]1CN(c2nc(C)c(C)cc2-c2nc(C)no2)CC[C@@H]1NC1CCCCC1 on kappa opioid receptor (OPRK1) (Homo sapiens (Human)): 0.048 µM

Measured IC50 for this entry Cc1noc(-c2cc3c(nc2N2CC[C@@H](NC4CCCCC4)[C@H](O)C2)CCCC3)n1 on kappa opioid receptor (OPRK1) (Homo sapiens (Human)): 0.199 µM

Measured IC50 for this entry Cc1ccc2nc(N3CCC(C)(NC4CCCCC4)CC3)c(-c3nc(C)no3)cc2c1 on kappa opioid receptor (OPRK1) (Homo sapiens (Human)): > 10 µM

Measured IC50 for this entry CO[C@@H]1CN(c2nc(C)ccc2-c2noc(C)n2)CC[C@@H]1NC1CCCCC1 on kappa opioid receptor (OPRK1) (Homo sapiens (Human)): 1 µM

Measured IC50 for this entry Cc1ccc2nc(N3CCC(C)(NC4CCOCC4)CC3)c(-c3nc(C)no3)cc2c1 on kappa opioid receptor (OPRK1) (Homo sapiens (Human)): > 10 µM
